Molecular target: chemokine receptor CXCR7 (UniProt P25106 1-362, limits assumed)
Sequence (P25106 whole entry): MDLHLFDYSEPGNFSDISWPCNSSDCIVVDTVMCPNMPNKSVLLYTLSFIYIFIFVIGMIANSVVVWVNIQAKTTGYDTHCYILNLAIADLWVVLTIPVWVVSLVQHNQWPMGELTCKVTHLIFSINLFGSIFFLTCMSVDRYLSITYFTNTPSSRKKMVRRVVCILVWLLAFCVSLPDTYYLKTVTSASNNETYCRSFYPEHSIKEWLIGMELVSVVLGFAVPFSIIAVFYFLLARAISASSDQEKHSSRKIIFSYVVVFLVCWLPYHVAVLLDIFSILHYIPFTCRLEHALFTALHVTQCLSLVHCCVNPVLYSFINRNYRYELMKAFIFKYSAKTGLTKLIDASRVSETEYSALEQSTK
Experiment: cell-based or functional assay
Square brackets hold non-standard residues; d marks the D form. dPro(cis-4-NH2) = N[C@H]1CN[C@@H](C(=O)O)C1; Oic = O=C(O)[C@@H]1C[C@@H]2CCCC[C@@H]2N1; Orn = NCCC[C@H](N)C(=O)O; A56 = not defined here; Tiq = not defined here
parameter: β-Arrestin EC50 (nM)
Field format: number, assumed nM, no unit text.

Worked examples follow.
cyclo(R[dF]WR[dPro(cis-4-NH2)][Oic]) (SMILES N=C(N)NCCC[C@@H]1NC(=O)[C@@H]2C[C@@H]3CCCC[C@@H]3N2C(=O)[C@H]2C[C@@H](N)CN2C(=O)[C@H](CCCNC(=N)N)NC(=O)[C@H](Cc2c[nH]c3ccccc23)NC(=O)[C@@H](Cc2ccccc2)NC1=O) [cyclo(-Arg-^DPhe-Trp-Arg-^DPro((4R)NH2)-Oic-)] :: 20.5
cyclo(W[dF]W[Orn](A56)[dPro(cis-4-NH2)][Tiq]) (reading uncertain; also: printed as cyclo(-Trp-^DPhe-Trp-Orn(A56)-^DPro((4R)NH2)-Tiq-)) [cyclo(-Trp-^DPhe-Trp-Orn(A56)-^DPro((4R)NH2)-Tiq-)] :: 46.9

Next:
Input: Reported β-Arrestin EC50, binder cyclo(I[dR]KW[dP]T) (SMILES CC[C@H](C)[C@@H]1NC(=O)[C@H]([C@@H](C)O)NC(=O)[C@H]2CCCN2C(=O)[C@H](Cc2c[nH]c3ccccc23)NC(=O)[C@H](CCCCN)NC(=O)[C@@H](CCCNC(=N)N)NC1=O) [cyclo(-Ile-^DArg-Lys-Trp-^DPro-Thr-)] : ____
Output: 78.7
